The entries below come with measured diameter of the inhibition zone (DIZ) values attached.
Tested on: Klebsiella pneumoniae
test description: Antimicrobial activity against Klebsiella pneumoniae DSM 681 at 1 ug/ul after 24 hrs by disk diffusion method
Assay type: functional

compound	diameter of the inhibition zone (DIZ) / mm
C=C(C)C1Cc2c(cc3oc4oc5cc(O)ccc5c4c(=O)c3c2O)O1 (stereo not drawn)	7.3
C=C(C)C1Cc2c(O)cc3occ(-c4ccc(O)cc4O)c(=O)c3c2O1 (racemic)	7
C=C(C)[C@H]1Cc2c(cc3occ(-c4ccc(O)cc4)c(=O)c3c2O)O1	9.3
CC1(C)S[C@@H]2[C@H](NC(=O)[C@H](N)c3ccccc3)C(=O)N2[C@H]1C(=O)O	11.7
COc1cc2occ(-c3ccc(O)cc3)c(=O)c2c(O)c1OC	7
COc1cc(O)c2c(=O)c(-c3ccc(O)cc3)coc2c1	9.3
CN(C)[C@@H]1C(O)=C(C(N)=O)C(=O)[C@@]2(O)C(O)=C3C(=O)c4c(O)cccc4[C@@](C)(O)[C@H]3C[C@@H]12	26.3
CN[C@@H]1[C@H](O[C@H]2[C@H](O[C@H]3[C@H](O)[C@@H](O)[C@H](N=C(N)N)[C@@H](O)[C@@H]3N=C(N)N)O[C@@H](C)[C@]2(O)C=O)O[C@@H](CO)[C@H](O)[C@H]1O	21.3
COc1cc(-c2coc3cc(O)cc(O)c3c2=O)ccc1O	8.3
COc1cc(O)c2c(=O)c(-c3ccc(O)cc3O)coc2c1	9.7
O=c1c(-c2ccc(O)cc2O)coc2cc(O)cc(O)c12	7
COc1cc(O)c2c(c1)OC[C@H](c1ccc(O)cc1OC)C2=O	9.3
C[C@@H]1O[C@@H](Oc2cc(O)c3c(=O)cc(-c4ccc(O)c(O)c4)oc3c2)[C@H](O)[C@H](O)[C@H]1O	7.7
